- System: Escherichia coli
- METHOD NOTES: MIC, broth microdilution, standard strains and Japanese clinical isolates (Example 5, Table 4)
- Assay type: cell-based
- TEST CONTEXT: ATCCBAA2452; KUB4005 Escherichia coli ATCC BAA-2452, NDM-1
In this section, each of the compounds is paired with its reported MIC.
Quick note: give the figure in µg/mL, leave out the unit.

Solved cases below.
| SMILES STRING | MEASURED ON | UNIT ABBREVIATION | MIC |
| --- | --- | --- | --- |
| C[C@H]1[C@H](NC(=O)/C(=N\OC(C)(C)C(=O)O)c2csc(N)n2)C(=O)N1S(=O)(=O)O | Escherichia coli | µg/mL | 4 |
| C[C@@H](O)[C@H]1C(=O)N2C(C(=O)O)=C(SCCN=CN)C[C@H]12 | Escherichia coli | µg/mL | 4 |
| CC(C)(O/N=C(\C(=O)N[C@@H]1C(=O)N2C(C(=O)[O-])=C(C[N+]3(CCNC(=O)c4ccc(O)c(O)c4Cl)CCCC3)CS[C@H]12)c1csc(N)n1)C(=O)O | Escherichia coli | µg/mL | 0.5 |

Now turn to the next compound.
[Q] Which measured MIC value corresponds to C[C@@H](O)[C@H]1C(=O)N2C(C(=O)O)=C(S[C@@H]3CN[C@H](C(=O)N(C)C)C3)[C@H](C)[C@H]12 ?
[A] 1
